Source: ChEMBL document CHEMBL5150015

Exercise: for every item that follows, state its recorded pKi.
# assay: Inhibition of POP (unknown origin)
# Design: species or system Homo sapiens
One number for each entry, as −log10 of the molar value.

cpd_smiles=C[C@H]1O[C@H]2CC[C@@H](B3O[C@@H]4C[C@@H]5C[C@@H](C5(C)C)[C@]4(C)O3)N2C(=O)[C@H]1NC(=O)OC(C)(C)C recorded_measurement=8.31
cpd_smiles=CC(C)[C@H](NC(=O)OCc1ccccc1)C(=O)N1CCC[C@H]1B1O[C@@H]2C[C@@H]3C[C@@H](C3(C)C)[C@]2(C)O1 recorded_measurement=8.82
cpd_smiles=N[C@H]1CO[C@H]2CC[C@@H](B(O)O)N2C1=O recorded_measurement=5.66
cpd_smiles=CC(C)(C)OC(=O)N[C@@H]1CO[C@@H]2CC[C@@H](B3O[C@@H]4C[C@@H]5C[C@@H](C5(C)C)[C@]4(C)O3)N2C1=O recorded_measurement=6.47
cpd_smiles=N#C[C@@H]1CCCN1C(=O)[C@@H]1CC=C[C@H]2CN(Cc3ccccc3)C(=O)[C@@H]21 recorded_measurement=9.00

Hello, I would appreciate it if you could give pKi for each entry below.
1. CC(C)[C@H](NC(=O)OC(C)(C)C)C(=O)N1CCC[C@H]1B1O[C@@H]2C[C@@H]3C[C@@H](C3(C)C)[C@]2(C)O1
2. C[C@@H](NC(=O)OC(C)(C)C)C(=O)N1CCC[C@H]1B1O[C@@H]2C[C@@H]3C[C@@H](C3(C)C)[C@]2(C)O1

Return:
1. 8.80
2. 6.00

---

# assay-target: Dipeptidyl peptidase 4 (Homo sapiens, UniProt P27487)
# Sequence (P27487 whole entry): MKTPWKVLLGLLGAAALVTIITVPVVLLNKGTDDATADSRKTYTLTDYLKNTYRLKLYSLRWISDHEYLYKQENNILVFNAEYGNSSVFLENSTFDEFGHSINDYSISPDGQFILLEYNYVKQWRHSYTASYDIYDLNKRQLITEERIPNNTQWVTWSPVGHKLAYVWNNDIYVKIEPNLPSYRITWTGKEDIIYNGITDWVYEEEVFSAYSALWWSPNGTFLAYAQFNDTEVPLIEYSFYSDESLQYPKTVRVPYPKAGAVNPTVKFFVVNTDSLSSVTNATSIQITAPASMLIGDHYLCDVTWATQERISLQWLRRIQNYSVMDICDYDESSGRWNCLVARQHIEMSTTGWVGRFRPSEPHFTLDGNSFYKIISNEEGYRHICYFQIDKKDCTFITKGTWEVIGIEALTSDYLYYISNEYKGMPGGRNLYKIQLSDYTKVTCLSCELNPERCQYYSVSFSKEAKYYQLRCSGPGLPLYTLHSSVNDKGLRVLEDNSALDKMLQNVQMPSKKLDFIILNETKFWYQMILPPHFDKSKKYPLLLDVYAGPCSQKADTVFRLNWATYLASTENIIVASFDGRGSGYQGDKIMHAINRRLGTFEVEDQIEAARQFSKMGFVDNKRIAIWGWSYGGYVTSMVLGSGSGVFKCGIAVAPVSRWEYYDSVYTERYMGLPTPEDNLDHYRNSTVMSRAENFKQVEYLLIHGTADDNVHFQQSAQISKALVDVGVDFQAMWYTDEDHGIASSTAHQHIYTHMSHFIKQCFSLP
experimental-readout: IC50

Enquiry: Please report the recorded IC50 for N#C[C@@H]1C[C@H](F)CN1C(=O)[C@@H]1C[C@@H](CC(=O)N2Cc3ccccc3C2)C(=O)N1 .
Return: > 50 µM

---

# assay: Inhibition of POP (unknown origin)
# Parameters: species or system Homo sapiens
Kindly state pKi for each of the entries shown.
Answers are plain numbers, as −log10 of the molar value.

cpd_smiles=CC1(C)[C@@H]2C[C@H]3OB([C@@H]4CC[C@@H]5OC[C@H](NC(=O)OCc6ccccc6)C(=O)N54)O[C@@]3(C)[C@H]1C2 recorded_measurement=8.62
cpd_smiles=C[C@@H]1O[C@H]2CC[C@@H](B3O[C@@H]4C[C@@H]5C[C@@H](C5(C)C)[C@]4(C)O3)N2C(=O)[C@H]1NC(=O)OC(C)(C)C recorded_measurement=6.92

# per-item lookup of pKi; items listed below
1. O=C(N[C@H]1CO[C@H]2CCCN2C1=O)OCc1ccccc1
2. C[C@H](NC(=O)OCc1ccccc1)C(=O)N1CCC[C@H]1C#N
3. C[C@@H]1O[C@H]2CC[C@@H](B(O)O)N2C(=O)[C@H]1N

Return:
1: 5.36; 2: 9.04; 3: 5.14

Dear colleague, could you please provide pKi for the molecules listed below?
1. C[C@H](NC(=O)OCc1ccccc1)C(=O)N1CCCC1
2. CC(=O)N[C@H]1CO[C@H]2CC[C@@H](B3O[C@@H]4C[C@@H]5C[C@@H](C5(C)C)[C@]4(C)O3)N2C1=O
3. C[C@H](NC(=O)OCc1ccccc1)C(=O)N1CCC[C@H]1B1O[C@@H]2C[C@@H]3C[C@@H](C3(C)C)[C@]2(C)O1

Return:
1. 4.28
2. 5.96
3. 9.02
